Target: T1, human CLDN6, endogenously expressed on cancer cell lines (human, UniProt P56747 1-220)
T1 construct: also called Endogenous CLDN6+; CLDN6 on ARK2, OVCA429, UMUC4 cells
T1 sequence: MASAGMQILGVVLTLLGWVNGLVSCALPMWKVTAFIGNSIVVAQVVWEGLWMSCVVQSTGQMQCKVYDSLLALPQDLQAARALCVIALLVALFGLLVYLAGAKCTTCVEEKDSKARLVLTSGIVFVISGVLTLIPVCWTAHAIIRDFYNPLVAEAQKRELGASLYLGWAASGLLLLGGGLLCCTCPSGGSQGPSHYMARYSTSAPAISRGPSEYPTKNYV
Experiment: FACS, OVCA429 cells, 1.5 ug Ab
Endpoint: FACS signal

binder="AB11-3 (antibody, V domains shown, Humanized; also called humanized AB 11-3) VH: EVQLVESGGGLVQPGGSLRLSCAASGFTFSSFGMHWVRQAPGKGLEWVAYISSDSRTIYYADSVKGRFTISRDNAKNSLYLQMNSLRAEDTAVYYCARDYGRTYEAYWGQGTLVTVSS VL: DIVLTQSPDSLAVSLGERATINCRASKSVSTSGYSYIHWYQQKPGQPPKLLIYLASNLESGVPDRFSGSGSGTDFTLTISSVQAEDVAVYYCQHSRELPLTFGQGTKLELK" endpoint="FACS signal" value_reported=2200
